Tested on: Rattus norvegicus
assay text: Antiinflammatory activity in gamma irradiated rat assessed as reduction in serum IL-6 level at 150 mg/kg, ip administered once daily for 7 consecutive days by ELISA (reference value: 103.87 +/- 3.273 pg/ml)
Format: functional
// reported Serum IL-6 level per item

{"line notation": "CCOC(=O)c1sc2ncnc(Cl)c2c1C", "Serum IL-6 level": "50.1 pg/mL"}
{"line notation": "CCOC(=O)c1sc2ncnc(NCC(=O)O)c2c1C", "Serum IL-6 level": "46.53 pg/mL"}
{"line notation": "CCOC(=O)c1sc2ncnc(N[C@@H](CCSC)C(=O)O)c2c1C", "Serum IL-6 level": "45.72 pg/mL"}
{"line notation": "CCOC(=O)c1sc2ncnc(N[C@@H](CC(=O)O)C(=O)O)c2c1C", "Serum IL-6 level": "59.85 pg/mL"}

src = ChEMBL document CHEMBL4342407
